Target: HIV-RT (Human immunodeficiency virus type 1 group M subtype B, UniProt P04585)
Construct: 1 unit/mL of HIV-RT (Worthington Biochemical Corp., Freehold, N.J.); purchased Worthington Biochemical Corp., Freehold, N.J
Assay: Checkerboard combination of lavendamycin analogs with AZT-triphosphate in HIV-RT enzyme assay (Chou and Talalay)
Format: biochemical
Details: analogue 0.5 μM + AZT 0.007 μM, Trial 1
We label by threshold. Values of Combination index strictly beneath 0.5 are 1 (yes). Values of 0.5 and up are 0 (no).

• COC(=O)c1nc(-c2ccc3c(n2)C(=O)C(NC(C)=O)=CC3=O)c2[nH]c3ccccc3c2c1C [Compound 11, 7-acetyllavendamycin methyl ester] = 0 (no)
• CC(=O)NC1=CC(=O)c2ccc(-c3nc(C(=O)O)cc4c3[nH]c3ccccc34)nc2C1=O [Compound 18, 7-N-Acetyldemethyllavendamycin] = 1 (yes)
• CC(=O)NC1=CC(=O)c2ccc(-c3nc(C(N)=O)cc4c3[nH]c3ccccc34)nc2C1=O [Compound 16, 7-N-Acetyldemethyllavendamycin Amide] = 0 (no)
• CCCCOC(=O)c1cc2c([nH]c3ccccc32)c(-c2ccc3c(n2)C(=O)C(NC(=O)CCC)=CC3=O)n1 [Compound 12] = 0 (no)
• CCCCCCCCOC(=O)c1cc2c([nH]c3ccccc32)c(-c2ccc3c(n2)C(=O)C(N)=CC3=O)n1 [Compound 20, Demethyllavendamycin n-Octyl Ester] = 0 (no)
